Measured refractive index, listed per entry for reference.
measurement-description: refractive index (Na D-line) (dimensionless)
measurement-conditions: 308.15 K; 101.33 kPa; Liquid; Standard Abbe refractometry
measured-metric: refractive index

[[record]]
structure_notation = "Cc1ccc(Cl)cc1"
measured_metric = "refractive index"
test_value = 1.5138

[[record]]
structure_notation = "Cc1ccccc1Cl"
measured_metric = "refractive index"
test_value = 1.5169

[[record]]
structure_notation = "Cc1cccc(Cl)c1"
measured_metric = "refractive index"
test_value = 1.5169

[[record]]
structure_notation = "CCCCCCCCCCO"
measured_metric = "refractive index"
test_value = 1.4305


###

measurement-conditions: 298.15 K; 101 kPa; Liquid
Numbers after ± are expanded uncertainties.
measured-metric: mass density

[[record]]
structure_notation = "Cc1ccccc1Cl"
measured_metric = "mass density"
test_value = "1077.41 ± 0.3 kg/m3"

[[record]]
structure_notation = "CCCCCCCCCCO"
measured_metric = "mass density"
test_value = "826.41 ± 0.43 kg/m3"

[[record]]
structure_notation = "Cc1ccc(Cl)cc1"
measured_metric = "mass density"
test_value = "1065.11 ± 0.27 kg/m3"

[[record]]
structure_notation = "Cc1cccc(Cl)c1"
measured_metric = "mass density"
test_value = "1067.29 ± 0.29 kg/m3"


###

measurement-conditions: 308.15 K; 101 kPa; Liquid
Each record here notes measured mass density.
measured-metric: mass density (kg/m3)

[[record]]
molecule = "Cc1ccccc1Cl [2-chlorotoluene]"
measured_metric = "mass density"
quantity_unit = "kg/m3"
test_value = 1068.24

[[record]]
molecule = "Cc1ccc(Cl)cc1 [4-chlorotoluene]"
measured_metric = "mass density"
quantity_unit = "kg/m3"
test_value = 1053.9

[[record]]
molecule = "CCCCCCCCCCO [decan-1-ol]"
measured_metric = "mass density"
quantity_unit = "kg/m3"
test_value = 819.42

[[record]]
molecule = "Cc1cccc(Cl)c1 [3-chlorotoluene]"
measured_metric = "mass density"
quantity_unit = "kg/m3"
test_value = 1058.33


###

measurement-conditions: 303.15 K; 101 kPa; Liquid
measured-metric: viscosity (mPa·s)

[[record]]
structure_notation = "Cc1ccccc1Cl"
quantity_unit = "mPa·s"
test_value = 0.885

[[record]]
structure_notation = "Cc1ccc(Cl)cc1"
quantity_unit = "mPa·s"
test_value = 0.784

[[record]]
structure_notation = "Cc1cccc(Cl)c1"
quantity_unit = "mPa·s"
test_value = 0.746

[[record]]
structure_notation = "CCCCCCCCCCO"
quantity_unit = "mPa·s"
test_value = 9.766


###

The following molecules are shown together with reported refractive index values.
measurement-description: refractive index (Na D-line) (dimensionless)
measurement-conditions: 298.15 K; 101.33 kPa; Liquid; Standard Abbe refractometry
measured-metric: refractive index

[[record]]
structure_notation = "CCCCCCCCCCO"
test_value = 1.4346

[[record]]
structure_notation = "Cc1ccc(Cl)cc1"
test_value = 1.5188

[[record]]
structure_notation = "Cc1ccccc1Cl"
test_value = 1.5219

[[record]]
structure_notation = "Cc1cccc(Cl)c1"
test_value = 1.5207


###

measurement-conditions: 303.15 K; 101 kPa; Liquid
measured-metric: mass density (kg/m3)

[[record]]
structure_notation = "CCCCCCCCCCO"
test_value = 822.92

[[record]]
structure_notation = "Cc1cccc(Cl)c1"
test_value = 1062.81

[[record]]
structure_notation = "Cc1ccccc1Cl"
test_value = 1072.83

[[record]]
structure_notation = "Cc1ccc(Cl)cc1"
test_value = 1059.51


###

measurement-conditions: 298.15 K; 101 kPa; Liquid
± gives the expanded uncertainty stated by the source.
// viscosity lookup, one value per entry
measured-metric: viscosity

[[record]]
structure_notation = "Cc1ccc(Cl)cc1"
test_value = "0.828 ± 0.011 mPa·s"

[[record]]
structure_notation = "Cc1ccccc1Cl"
test_value = "0.943 ± 0.013 mPa·s"

[[record]]
structure_notation = "Cc1cccc(Cl)c1"
test_value = "0.798 ± 0.011 mPa·s"

[[record]]
structure_notation = "CCCCCCCCCCO"
test_value = "11.82 ± 0.11 mPa·s"


###

measurement-conditions: 308.15 K; 101 kPa; Liquid
measured-metric: viscosity (mPa·s)

[[record]]
structure_notation = "Cc1ccccc1Cl"
measured_metric = "viscosity"
test_value = 0.805

[[record]]
structure_notation = "Cc1ccc(Cl)cc1"
measured_metric = "viscosity"
test_value = 0.73

[[record]]
structure_notation = "CCCCCCCCCCO"
measured_metric = "viscosity"
test_value = 8.13

[[record]]
structure_notation = "Cc1cccc(Cl)c1"
measured_metric = "viscosity"
test_value = 0.705


###

measurement-description: refractive index (Na D-line) (dimensionless)
measurement-conditions: 303.15 K; 101.33 kPa; Liquid; Standard Abbe refractometry
Readings of refractive index for the listed compounds
measured-metric: refractive index

[[record]]
structure_notation = "Cc1ccc(Cl)cc1"
measured_metric = "refractive index"
test_value = 1.5166

[[record]]
structure_notation = "CCCCCCCCCCO"
measured_metric = "refractive index"
test_value = 1.4326

[[record]]
structure_notation = "Cc1ccccc1Cl"
measured_metric = "refractive index"
test_value = 1.5189

[[record]]
structure_notation = "Cc1cccc(Cl)c1"
measured_metric = "refractive index"
test_value = 1.5189


###

Form field: speed of sound (one value per entry).
measurement-conditions: 308.15 K; 101 kPa; Liquid; Pulse-echo method
measured-metric: speed of sound (m/s)

[[record]]
compound = "Cc1ccccc1Cl [2-chlorotoluene]"
test_value = 1266.1

[[record]]
compound = "CCCCCCCCCCO [decan-1-ol]"
test_value = 1346

[[record]]
compound = "Cc1cccc(Cl)c1 [3-chlorotoluene]"
test_value = 1262.1

[[record]]
compound = "Cc1ccc(Cl)cc1 [4-chlorotoluene]"
test_value = 1253.1

